Source of measurements: ChEMBL document CHEMBL1165941

System: Rattus norvegicus
Test: Antihyperglycemic activity in Sprague-Dawley albino rat streptozotocin-induced beta-cell damaged diabetic model assessed as decrease of blood glucose level at 100 mg/kg, po administered 30 mins before glucose challenge measured after 5 hrs by glucometer
Type: functional
Design: scale not given: the % may be the effect or the level left
Hi! Just check whether Activity is below 20%. Below gives true (1), equal or above gives false (0).

[
  {
    "compound": "COc1ccc(C2=CC(c3ccccc3)C3=C(CC(C)(C)CC3=O)N2)cc1 (stereo not given)",
    "cat": "true (1)"
  },
  {
    "compound": "COc1ccc(C2C=C(c3ccccc3)NC3=C2C(=O)CC(C)(C)C3)cc1 (stereo not given)",
    "cat": "true (1)"
  },
  {
    "compound": "CC1(C)CC(=O)C2=C(C1)NC(c1ccccc1)=CC2c1ccc(Cl)cc1 (stereo not given)",
    "cat": "true (1)"
  },
  {
    "compound": "CC1(C)CC(=O)C2=C(C1)NC(c1ccccc1)=CC2c1ccc(F)cc1 (stereo not given)",
    "cat": "false (0)"
  },
  {
    "compound": "CCOC(=O)C1=CC(c2ccccc2)C2=C(CC(C)(C)CC2=O)N1 (stereo not given)",
    "cat": "true (1)"
  },
  {
    "compound": "CC1(C)CC(=O)C2=C(C1)NC(c1ccccc1)=CC2c1c[nH]c2ccccc12 (stereo not given)",
    "cat": "true (1)"
  },
  {
    "compound": "COc1ccc(C2C=C(C(=O)O)NC3=C2C(=O)CC(C)(C)C3)cc1 (stereo not given)",
    "cat": "false (0)"
  },
  {
    "compound": "CC1(C)CC(=O)C2=C(C1)NC(c1ccccc1)=CC2c1ccccc1 (stereo not given)",
    "cat": "true (1)"
  },
  {
    "compound": "COc1ccc(C2C=C(c3ccccc3)NC3=C2C(=O)CCC3)cc1 (stereo not given)",
    "cat": "true (1)"
  },
  {
    "compound": "O=C1CCCC2=C1C(c1ccc(Cl)cc1)C=C(c1ccccc1)N2 (stereo not given)",
    "cat": "true (1)"
  }
]

###

Tested on: Rattus norvegicus
Test: Antidyslipidemic activity in Charles Foster rat assessed as reduction of Triton WR-1339-induced increase of blood total cholesterol level at 100 mg/kg, po after 18 hrs
Type: functional
Set-up: scale not given: the % may be the effect or the level left
# Lookup of reported Activity keyed by entry

[
  {
    "compound": "CC1(C)CC(=O)C2=C(C1)NC(c1ccccc1)=CC2c1ccc(F)cc1 (stereo not drawn)",
    "Activity": "-22.45%"
  },
  {
    "compound": "O=C1CCCC2=C1C(c1ccc(Cl)cc1)C=C(c1ccccc1)N2 (stereo not drawn)",
    "Activity": "-6.7%"
  },
  {
    "compound": "COc1ccc(C2C=C(C(=O)O)NC3=C2C(=O)CC(C)(C)C3)cc1 (stereo not drawn)",
    "Activity": "-24.63%"
  }
]

###

Tested on: Rattus norvegicus
Test: Antihyperglycemic activity in Charles Foster-Wistar albino rat sucrose loaded model assessed as decrease of blood glucose level at 100 mg/kg, po administered 30 mins before glucose challenge measured up to 120 mins by glucometer
Format: functional
Design: scale not given: the % may be the effect or the level left
Conditions: in the assay text read “Sprague-Dawley” for “Charles Foster-Wistar”

[
  {
    "molecule": "CC1(C)CC(=O)C2=C(C1)NC(c1ccccc1)=CC2c1c[nH]c2ccccc12 (centres undefined)",
    "Activity (%)": 17.3
  },
  {
    "molecule": "CC1(C)CC(=O)C2=C(C1)NC(c1ccccc1)=CC2c1ccc(F)cc1 (centres undefined)",
    "Activity (%)": 41.3
  },
  {
    "molecule": "CCOC(=O)C1=CC(c2ccc(Cl)cc2)C2=C(CC(C)(C)CC2=O)N1 (centres undefined)",
    "Activity (%)": 11.4
  },
  {
    "molecule": "CCOC(=O)C1(O)CC(c2ccc(F)cc2)C2=C(CC(C)(C)CC2=O)O1 (centres undefined)",
    "Activity (%)": 15.3
  }
]

###

Target: UniProtKB P27487
Sequence (P27487 whole entry, looked up): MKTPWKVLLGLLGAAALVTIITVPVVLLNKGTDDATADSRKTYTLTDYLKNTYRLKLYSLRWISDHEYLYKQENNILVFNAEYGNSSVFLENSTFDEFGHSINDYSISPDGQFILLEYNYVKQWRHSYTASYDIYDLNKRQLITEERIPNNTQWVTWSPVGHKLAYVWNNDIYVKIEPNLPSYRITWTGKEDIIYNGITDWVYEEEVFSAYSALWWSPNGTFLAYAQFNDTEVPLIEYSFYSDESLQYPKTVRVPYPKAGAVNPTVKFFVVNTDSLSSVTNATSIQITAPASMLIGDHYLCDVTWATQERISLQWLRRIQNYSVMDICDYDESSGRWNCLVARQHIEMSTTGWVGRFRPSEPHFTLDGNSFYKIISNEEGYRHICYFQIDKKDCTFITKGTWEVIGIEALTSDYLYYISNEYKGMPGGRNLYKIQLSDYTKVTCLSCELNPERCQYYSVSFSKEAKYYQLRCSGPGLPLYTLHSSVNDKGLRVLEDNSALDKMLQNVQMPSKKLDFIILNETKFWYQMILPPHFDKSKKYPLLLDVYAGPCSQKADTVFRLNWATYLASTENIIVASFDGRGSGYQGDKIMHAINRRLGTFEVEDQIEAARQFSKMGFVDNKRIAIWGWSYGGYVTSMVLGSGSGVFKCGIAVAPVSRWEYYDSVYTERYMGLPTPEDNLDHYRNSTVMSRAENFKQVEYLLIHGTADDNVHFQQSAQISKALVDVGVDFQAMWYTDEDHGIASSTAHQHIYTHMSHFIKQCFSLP
Experiment: Inhibition of DPP4 at 100 uM after 15 mins by spectrofluorimeter
Active and inactive are the calls of the source. The calls are words filed in the database; no cut-off is given here.

[
  {
    "compound": "CC1(C)CC(=O)C2=C(C1)NC(c1ccccc1)=CC2c1ccc(F)cc1 (centres undefined)",
    "inhibition": "inactive"
  },
  {
    "compound": "CC1(C)CC(=O)C2=C(C1)NC(c1ccccc1)=CC2c1ccc(Cl)cc1 (centres undefined)",
    "inhibition": "inactive"
  },
  {
    "compound": "CC1(C)CC(=O)C2=C(C1)NC(c1ccccc1)=CC2c1ccccc1 (centres undefined)",
    "inhibition": "12%"
  },
  {
    "compound": "CC1(C)CC(=O)C2=C(C1)NC(C(=O)O)=CC2c1ccc(F)cc1 (centres undefined)",
    "inhibition": "inactive"
  },
  {
    "compound": "O=C1CCCC2=C1C(c1ccccc1)C=C(c1ccccc1)N2 (centres undefined)",
    "inhibition": "inactive"
  },
  {
    "compound": "CC1(C)CC(=O)C2=C(C1)NC(c1ccccc1)=CC2c1c[nH]c2ccccc12 (centres undefined)",
    "inhibition": "inactive"
  },
  {
    "compound": "CC1(C)CC(=O)C2=C(C1)NC(C(=O)O)=CC2c1ccc(Cl)cc1 (centres undefined)",
    "inhibition": "inactive"
  },
  {
    "compound": "CC1(C)CC(=O)c2c(-c3ccc(F)cc3)cc(-c3ccccc3)nc2C1",
    "inhibition": "13.1%"
  },
  {
    "compound": "CCOC(=O)C1(O)CC(c2ccc(Cl)cc2)C2=C(CC(C)(C)CC2=O)O1 (centres undefined)",
    "inhibition": "inactive"
  },
  {
    "compound": "Cc1ccc(C2=CC(c3ccccc3)C3=C(CCCC3=O)N2)cc1 (centres undefined)",
    "inhibition": "18.8%"
  },
  {
    "compound": "CCOC(=O)C1=CC(c2ccc(Cl)cc2)C2=C(CC(C)(C)CC2=O)N1 (centres undefined)",
    "inhibition": "12.5%"
  },
  {
    "compound": "CC1(C)CC(=O)c2c(-c3ccc(Cl)cc3)cc(-c3ccccc3)nc2C1",
    "inhibition": "29.4%"
  },
  {
    "compound": "COc1ccc(C2=CC(c3ccccc3)C3=C(CC(C)(C)CC3=O)N2)cc1 (centres undefined)",
    "inhibition": "inactive"
  },
  {
    "compound": "CCOC(=O)C1=CC(c2ccc(F)cc2)C2=C(CC(C)(C)CC2=O)N1 (centres undefined)",
    "inhibition": "9.8%"
  }
]

###

Assay: Inhibition of glycogen phosphorylase assessed as […] phosphate release at 100 uM after 30 mins
Activity calls are given as the source filed them. No cut-off for these calls is given here.
measuredQuantity: inhibition

[
  {
    "compound": "CCOC(=O)C1=CC(c2ccc(Cl)cc2)C2=C(CC(C)(C)CC2=O)N1 (stereo not drawn)",
    "result": "56.7%"
  },
  {
    "compound": "O=C1CCCC2=C1C(c1ccc(Cl)cc1)C=C(c1ccccc1)N2 (stereo not drawn)",
    "result": "19.3%"
  },
  {
    "compound": "Cc1ccc(C2=CC(c3ccccc3)C3=C(CC(C)(C)CC3=O)N2)cc1 (stereo not drawn)",
    "result": "31.7%"
  },
  {
    "compound": "CC1(C)CC(=O)C2=C(C1)NC(C(=O)O)=CC2c1ccc(F)cc1 (stereo not drawn)",
    "result": "46.6%"
  },
  {
    "compound": "CCOC(=O)C1=CC(c2ccc(OC)cc2)C2=C(CC(C)(C)CC2=O)N1 (stereo not drawn)",
    "result": "40.4%"
  },
  {
    "compound": "O=C1CCCC2=C1C(c1ccccc1)C=C(c1ccccc1)N2 (stereo not drawn)",
    "result": "21.8%"
  },
  {
    "compound": "CCOC(=O)C1(O)CC(c2ccccc2)C2=C(CC(C)(C)CC2=O)O1 (stereo not drawn)",
    "result": "inactive"
  },
  {
    "compound": "CCOC(=O)C1(O)CC(c2ccc(OC)cc2)C2=C(CC(C)(C)CC2=O)O1 (stereo not drawn)",
    "result": "inactive"
  }
]

###

Assay: Inhibition of alpha-glucosidase at 100 uM after 3 mins
The source made the active and inactive calls. The rule behind the calls is not given here.
measuredQuantity: inhibition

[
  {
    "compound": "CCOC(=O)C1(O)CC(c2ccc(Cl)cc2)C2=C(CC(C)(C)CC2=O)O1 (stereo not drawn)",
    "result": "inactive"
  },
  {
    "compound": "COc1ccc(C2=CC(c3ccccc3)C3=C(CC(C)(C)CC3=O)N2)cc1 (stereo not drawn)",
    "result": "22.4%"
  },
  {
    "compound": "CCOC(=O)C1=CC(c2ccc(OC)cc2)C2=C(CC(C)(C)CC2=O)N1 (stereo not drawn)",
    "result": "inactive"
  }
]
